# ASSAY REMARKS: Oral bioavailability in rat
# Assay type: ADME, organism-based
# ASSAY CONDITIONS: in vivo
Peptide text beside a SMILES is read from it. * marks the point of attachment. Tos = Cc1ccc(S(=O)(=O)*)cc1
QUANTITY KIND: bioavailability (%)
Numbers only, in %.

Answer with the recorded bioavailability of Cc1ccc(S(=O)(=O)N2CCC[C@H]2C(=O)N[C@@H](Cc2ccccc2)C(=O)O)cc1 (Tos-Pro-Phe-OH) only.
10

---

# EXPERIMENTAL SYSTEM: Integrin alpha-4 (Homo sapiens)
# ASSAY REMARKS: Displacement of VCAM1 from VLA4 receptor in human U937 cells
pIC50: −log10 of the molar value.
Assign class by pIC50: not lower than 6 means TRUE; lower than 6 means FALSE.

Completed entries (count: 10):
O=C(O)[C@H](Cc1ccc(OCc2c(Cl)cccc2Cl)cc1)NC(=O)[C@@H]1OCO[C@H]1C(=O)NC1CC1	TRUE
O=C(O)[C@H](Cc1ccc(OCc2c(Cl)cccc2Cl)cc1)NC(=O)[C@@H]1OCO[C@H]1C(=O)Nc1nccs1	TRUE
CCCCCCCNC(=O)[C@@H]1OCO[C@H]1C(=O)N[C@@H](Cc1ccc(OCc2c(Cl)cccc2Cl)cc1)C(=O)O	FALSE
O=C(Nc1ccc(C[C@H](NC(=O)[C@@H]2OCO[C@H]2C(=O)Nc2ccccc2-c2ccccc2)C(=O)O)cc1)c1c(Cl)cccc1Cl	TRUE
O=C(O)[C@H](Cc1ccc(OCc2c(Cl)cccc2Cl)cc1)NC(=O)[C@@H]1OCO[C@H]1C(=O)N1CCOCC1	FALSE
O=C(O)[C@H](Cc1ccc(OCc2c(Cl)cccc2Cl)cc1)NC(=O)[C@@H]1OCO[C@H]1C(=O)NCc1ccc2c(c1)OCO2	FALSE
O=C(O)[C@H](Cc1ccc(OCc2c(Cl)cccc2Cl)cc1)NC(=O)[C@@H]1OCO[C@H]1C(=O)Nc1ccccc1-c1ccccc1	TRUE
O=C(O)[C@H](Cc1ccc(OCc2c(Cl)cccc2Cl)cc1)NC(=O)[C@@H]1OCO[C@H]1C(=O)Nc1c(F)cccc1F	TRUE
COc1ccccc1C(=O)Nc1ccc(C[C@H](NC(=O)[C@@H]2OCO[C@H]2C(=O)Nc2ccccc2-c2ccccc2)C(=O)O)cc1	FALSE
O=C(Nc1ccc(C[C@H](NC(=O)[C@@H]2OCO[C@H]2C(=O)Nc2ccccc2-c2ccccc2)C(=O)O)cc1)c1cc(Cl)nc(Cl)c1	FALSE

In plain terms: is recorded pIC50 at least 6 for O=C(O)[C@H](Cc1ccc(OCc2c(Cl)cccc2Cl)cc1)NC(=O)[C@@H]1OCO[C@H]1C(=O)Nc1c(Cl)cncc1Cl ?
TRUE

---

# EXPERIMENTAL SYSTEM: Integrin alpha-4 (Homo sapiens)
# ASSAY REMARKS: Displacement of VCAM1 from VLA4 receptor in human U937 cells
QUANTITY KIND: pIC50
Answers are plain numbers, as −log10 of the molar value.

Worked examples follow.
O=C(Nc1ccc(C[C@H](NC(=O)[C@@H]2OCO[C@H]2C(=O)Nc2ccccc2-c2ccccc2)C(=O)O)cc1)c1ccccn1	5.08
O=C(O)[C@H](Cc1ccc(OCc2c(Cl)cccc2Cl)cc1)NC(=O)[C@@H]1OCO[C@H]1C(=O)NCc1cccs1	6.15
COc1ccccc1NC(=O)[C@@H]1OCO[C@H]1C(=O)N[C@@H](Cc1ccc(OCc2c(Cl)cccc2Cl)cc1)C(=O)O	6.22
CN(C)C(=O)[C@@H]1OCO[C@H]1C(=O)N[C@@H](Cc1ccc(OCc2c(Cl)cccc2Cl)cc1)C(=O)O	5.82
CNC(=O)[C@@H]1OCO[C@H]1C(=O)N[C@@H](Cc1ccc(OCc2c(Cl)cccc2Cl)cc1)C(=O)O	5.92

Okay, here is my list. What is pIC50 for each of these?
1. CC(C)(C)c1cc(NC(=O)[C@@H]2OCO[C@H]2C(=O)N[C@@H](Cc2ccc(OCc3c(Cl)cccc3Cl)cc2)C(=O)O)n(Cc2ccccc2)n1
2. O=C(O)[C@H](Cc1ccc(OCc2c(F)cccc2F)cc1)NC(=O)[C@@H]1OCO[C@H]1C(=O)Nc1ccccc1-c1ccccc1
3. Cc1ccc(-n2nc(C(C)(C)C)cc2NC(=O)[C@@H]2OCO[C@H]2C(=O)N[C@@H](Cc2ccc(OCc3c(Cl)cccc3Cl)cc2)C(=O)O)cc1
4. CC(C)CCNC(=O)[C@@H]1OCO[C@H]1C(=O)N[C@@H](Cc1ccc(OCc2c(Cl)cccc2Cl)cc1)C(=O)O
5. O=C(O)[C@H](Cc1ccc(OCc2c(Cl)cccc2Cl)cc1)NC(=O)[C@@H]1OCO[C@H]1C(=O)NCCc1c[nH]c2ccccc12
6. O=C(O)[C@H](Cc1ccc(OCc2ccccc2Cl)cc1)NC(=O)[C@@H]1OCO[C@H]1C(=O)Nc1ccccc1-c1ccccc1
7. O=C(O)[C@H](Cc1ccc(OCc2c(Cl)cccc2Cl)cc1)NC(=O)[C@@H]1OCO[C@H]1C(=O)NC1CCCCC1
8. Cc1nnc(NC(=O)[C@@H]2OCO[C@H]2C(=O)N[C@@H](Cc2ccc(OCc3c(Cl)cccc3Cl)cc2)C(=O)O)s1

[6.00, 5.10, 5.59, 5.96, 6.22, 5.06, 5.85, 5.82]

Okay, here is my list. What is pIC50 for each of these?
1. O=C(Nc1ccc(C[C@H](NC(=O)[C@@H]2OCO[C@H]2C(=O)Nc2ccccc2-c2ccccc2)C(=O)O)cc1)c1ccncc1
2. O=C(O)[C@H](Cc1ccc(OCc2c(Cl)cccc2Cl)cc1)NC(=O)[C@@H]1OCO[C@H]1C(=O)Nc1ccccc1F
3. CC(C)(C)NC(=O)[C@@H]1OCO[C@H]1C(=O)N[C@@H](Cc1ccc(OCc2c(Cl)cccc2Cl)cc1)C(=O)O

[5.57, 6.22, 5.92]

---

Please provide measured pIC50 for the entries that follow.
# EXPERIMENTAL SYSTEM: Integrin alpha-4 (Homo sapiens, UniProt P13612)
# Sequence (P13612 whole entry): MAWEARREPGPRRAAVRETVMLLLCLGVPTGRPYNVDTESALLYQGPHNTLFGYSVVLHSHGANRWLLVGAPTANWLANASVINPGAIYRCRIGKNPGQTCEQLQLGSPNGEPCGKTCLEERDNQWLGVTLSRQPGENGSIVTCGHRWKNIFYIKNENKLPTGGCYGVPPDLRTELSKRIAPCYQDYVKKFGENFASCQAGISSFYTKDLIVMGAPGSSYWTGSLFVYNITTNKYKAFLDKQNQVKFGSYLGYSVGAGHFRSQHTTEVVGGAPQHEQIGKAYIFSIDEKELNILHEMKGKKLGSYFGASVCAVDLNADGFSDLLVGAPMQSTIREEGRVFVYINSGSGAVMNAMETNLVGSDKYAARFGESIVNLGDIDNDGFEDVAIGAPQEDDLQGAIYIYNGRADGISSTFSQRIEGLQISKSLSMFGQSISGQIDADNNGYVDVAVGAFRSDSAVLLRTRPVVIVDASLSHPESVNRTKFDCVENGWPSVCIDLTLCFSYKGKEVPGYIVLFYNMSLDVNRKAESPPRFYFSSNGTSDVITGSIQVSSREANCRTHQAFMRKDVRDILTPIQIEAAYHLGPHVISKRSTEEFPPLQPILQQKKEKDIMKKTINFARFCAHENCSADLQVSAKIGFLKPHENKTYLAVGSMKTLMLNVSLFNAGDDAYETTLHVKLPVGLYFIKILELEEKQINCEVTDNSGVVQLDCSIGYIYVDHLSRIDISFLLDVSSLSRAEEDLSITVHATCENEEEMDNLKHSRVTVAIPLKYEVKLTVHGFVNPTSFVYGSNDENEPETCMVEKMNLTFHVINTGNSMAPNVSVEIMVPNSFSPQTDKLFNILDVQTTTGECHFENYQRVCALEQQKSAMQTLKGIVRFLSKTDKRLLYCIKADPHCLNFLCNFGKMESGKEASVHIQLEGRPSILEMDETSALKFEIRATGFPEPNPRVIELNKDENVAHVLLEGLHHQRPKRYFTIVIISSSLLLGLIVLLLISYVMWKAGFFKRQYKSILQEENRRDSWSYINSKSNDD
# ASSAY REMARKS: Displacement of VCAM1 from VLA4 receptor in human U937 cells
One number for each entry, as −log10 of the molar value.

Worked examples follow.
CCNC(=O)[C@@H]1OCO[C@H]1C(=O)N[C@@H](Cc1ccc(OCc2c(Cl)cccc2Cl)cc1)C(=O)O	5.68
CC(C)NC(=O)[C@@H]1OCO[C@H]1C(=O)N[C@@H](Cc1ccc(OCc2c(Cl)cccc2Cl)cc1)C(=O)O	5.18
O=C(Nc1ccc(C[C@H](NC(=O)[C@@H]2OCO[C@H]2C(=O)Nc2ccccc2-c2ccccc2)C(=O)O)cc1)c1ccccc1	5.05
O=C(Nc1ccc(C[C@H](NC(=O)[C@@H]2OCO[C@H]2C(=O)Nc2ccccc2-c2ccccc2)C(=O)O)cc1)c1cccnc1	5.02

Okay, here is my list. What is pIC50 for each of these?
1. CCCCNC(=O)[C@@H]1OCO[C@H]1C(=O)N[C@@H](Cc1ccc(OCc2c(Cl)cccc2Cl)cc1)C(=O)O
2. O=C(O)[C@H](Cc1ccc(OCc2c(Cl)cccc2Cl)cc1)NC(=O)[C@@H]1OCO[C@H]1C(=O)Nc1ccc(Cl)cc1
3. O=C(O)[C@H](Cc1ccc(OCc2c(Cl)cccc2Cl)cc1)NC(=O)[C@@H]1OCO[C@H]1C(=O)Nc1nc2ccccc2s1

5.82
5.55
6.22

---

# ASSAY REMARKS: Metabolic stability in human liver microsome at 8 uM after 1 hr
# Type: ADME
# ASSAY CONDITIONS: liver microsomes, read-out: Stability
Please provide measured remaining at 1 h, 8 µM for the entries that follow.
Give your result as the value with the unit written after it.

O=C(O)[C@H](Cc1ccc(OCc2c(Cl)cccc2Cl)cc1)NC(=O)[C@@H]1OCO[C@H]1C(=O)Nc1nccs1	52%

We now examine a further compound.
Answer with the recorded remaining at 1 h, 8 µM of O=C(O)[C@H](Cc1ccc(OCc2c(Cl)cccc2Cl)cc1)NC(=O)[C@@H]1OCO[C@H]1C(=O)NC1CC1 only.
72%

---

# EXPERIMENTAL SYSTEM: Integrin alpha-4 (Homo sapiens, UniProt P13612)
# ASSAY REMARKS: Displacement of VCAM1 from VLA4 receptor in human U937 cells
QUANTITY KIND: pIC50
Give bare numbers, as −log10 of the molar value.

Worked examples follow.
O=C(O)[C@H](Cc1ccc(OCc2c(Cl)cccc2Cl)cc1)NC(=O)[C@@H]1OCO[C@H]1C(=O)Nc1ccccc1C(F)(F)F	6.05
O=C(O)[C@H](Cc1ccc(OCc2c(Cl)cccc2Cl)cc1)NC(=O)[C@@H]1OCO[C@H]1C(=O)Nc1ccccc1Cl	6.15
O=C(O)[C@H](Cc1ccc(OCc2c(Cl)cccc2Cl)cc1)NC(=O)[C@@H]1OCO[C@H]1C(=O)Nc1ccccc1	5.82

We now examine a further compound.
Answer with the recorded pIC50 of O=C(O)[C@H](Cc1ccc(OCc2c(Cl)cccc2Cl)cc1)NC(=O)[C@@H]1OCO[C@H]1C(=O)Nc1c(Cl)cccc1Cl only.
6.15
